assay: qHTS Assay for Lipid Storage Modulators in Drosophila S3 Cells; conditions: BODIPY lipid droplet fluorescence, 18-24 h, cells fed with added oleic acid; series mostly up to 46.1 µM
In all, about 320,000 compounds went through this assay and about 2,100 (0.66%) were called active. Roughly 53% stayed inconclusive and do not appear here. The call rests on the fitted dose curve; in most records, active means well fitted inhibition curve with a large enough effect in the signal ratio, with a control signal flat (not every such curve was filed as active); inconclusive means small, poorly fitted or top-dose-only effect, or effect the other way, or a change in a side signal; inactive means flat fitted curve, though single readings scatter; the % refers to the signal ratio. The sample holds actives, similar compounds and a random draw of the others, so the mix is not that of the screen.
Outcomes: y (active), n (inactive)

>  <compound>
O=c1[nH]c(/C=C/c2cccc3ccccc23)nc2ccccc12

>  <classification>
n

$$$$
>  <compound>
COc1ccc(C(=O)N/C(=C\c2cn(C)c3ccccc23)C(=O)N2CCOCC2)cc1OC

>  <classification>
y

$$$$
>  <compound>
Cc1oc2c(cc(NS(=O)(=O)c3ccc4c5c(cccc35)C(=O)N4)c3ccccc32)c1C(=O)OC(C)C

>  <classification>
n

$$$$
>  <compound>
COc1cccc(NC(=O)Cn2nnc(C(=O)Nc3ccccc3)c2N)c1

>  <classification>
n

$$$$
>  <compound>
CC[C@H](C)[C@H](NC(N)=O)C(=O)Nc1ccc(S(=O)(=O)NC(C)C)cc1

>  <classification>
n

$$$$
>  <compound>
N/C(=N\OC(=O)/C=C/c1ccccc1)c1ccccn1

>  <classification>
n

$$$$
>  <compound>
COc1ccc(CNC(=O)CN2C(=O)NC(C)(c3cccc(Br)c3)C2=O)cc1 (stereo not drawn)

>  <classification>
n

$$$$
>  <compound>
CCc1cc(=O)oc2c3c(cc(OCC(=O)NCc4cccnc4)c12)OC(C)(C)CC3

>  <classification>
y

$$$$
>  <compound>
COc1cc(C(=O)NCCOc2cc(C)cc(C)c2)cc(OC)c1OC

>  <classification>
n

$$$$
>  <compound>
CCc1cc(=O)oc2c3c(cc(OCC(=O)NCc4ccncc4)c12)OC(C)(C)CC3

>  <classification>
n

$$$$
>  <compound>
Cc1cccc(Oc2ncnc(N)c2[N+](=O)[O-])c1C

>  <classification>
n

$$$$
>  <compound>
Cc1cc(O)ccc1NS(=O)(=O)c1ccc2c3c(cccc13)C(=O)N2

>  <classification>
y

$$$$
>  <compound>
COc1ccc(C(=O)N/C(=C\c2cn(C)c3ccccc23)C(=O)N2CCN(C)CC2)cc1OC

>  <classification>
n

$$$$
>  <compound>
Cc1onc(-c2ccccc2)c1CNS(=O)(=O)c1cccc(Br)c1

>  <classification>
n

$$$$
>  <compound>
CCOC(=O)C1C(=O)Nc2nc(C)nn2C1c1ccccc1 (stereo not drawn)

>  <classification>
n

$$$$
>  <compound>
Cc1nc2c(sc3nc(N4CCOCC4)c4c(c32)CC(C)(C)OC4)c(-c2ccccc2)c1C(=O)O

>  <classification>
n

$$$$
>  <compound>
Cc1nc2c(sc3nc(N4CCOCC4)c4c(c32)CC(C)(C)OC4)c(-c2ccc(Cl)cc2)c1C(=O)O

>  <classification>
y

$$$$
>  <compound>
CCOC(=O)N1CCN(C2=C(NS(=O)(=O)c3ccc(C)cc3)C(=O)c3ccccc3C2=O)CC1

>  <classification>
n

$$$$
>  <compound>
COc1ccc(NC(=O)Cn2nnc(C(=O)NCCc3ccccc3)c2N)c(OC)c1

>  <classification>
n

$$$$
>  <compound>
O=C1Nc2ccccc2N(O)N1c1cc(-c2ccccc2Cl)no1

>  <classification>
n

$$$$
>  <compound>
Cc1nnc(NC(=O)Cn2nc(C)c3ccccc3c2=O)s1

>  <classification>
n

$$$$
>  <compound>
Cc1ccc(NC(=O)c2sc3nc(N4CCOCC4)c4c(c3c2N)CC(C)(C)OC4)cc1

>  <classification>
n

$$$$
>  <compound>
C[C@@H]1CCC(=O)N(C[C@@H](C)CSc2ccccc2)CC1

>  <classification>
n

$$$$
>  <compound>
CCOc1cccc(OCCn2cnc3ccccc3c2=O)c1

>  <classification>
n

$$$$
>  <compound>
Nc1c(C(=O)NCCc2ccccc2)nnn1Cc1ccc(Cl)cc1

>  <classification>
n

$$$$
>  <compound>
COCCCNC(=O)c1cc(OC)c(OC)c(OC)c1

>  <classification>
y

$$$$
>  <compound>
COc1ccc(-c2cc(C(=O)N3CCOCC3)no2)cc1OC

>  <classification>
n

$$$$
>  <compound>
CCOc1ccc(Cn2nnc(C(=O)NCCc3ccccc3)c2N)cc1

>  <classification>
n

$$$$
>  <compound>
Cc1cc(C(=O)CSc2nn3c(=O)c(C(C)(C)C)nnc3s2)c(C)n1C1CC1

>  <classification>
n

$$$$
>  <compound>
Cc1cccc(Nc2nc(N)c([N+](=O)[O-])c(NCCO)n2)c1

>  <classification>
n

$$$$
>  <compound>
COc1ccc(C(=O)N/C(=C\c2cn(C)c3ccccc23)C(=O)N2CCOCC2)cc1

>  <classification>
n

$$$$
>  <compound>
COc1ccc(CCNCc2c(OC)ccc3ccccc23)cc1OC

>  <classification>
n

$$$$
>  <compound>
COc1ccc(NC(=O)c2ccc(NCCCN3CCOCC3)c([N+](=O)[O-])c2)cc1

>  <classification>
n

$$$$
>  <compound>
O=c1[nH]c(/C=C/c2ccccc2F)nc2ccccc12

>  <classification>
n

$$$$
>  <compound>
COc1ccc(CNC(=O)CN2C(=O)NC(C)(c3cccc4ccccc34)C2=O)cc1OC (stereo not drawn)

>  <classification>
y

$$$$
>  <compound>
CCN1CCN(c2nc3sc4c(c3c(=O)n2-c2ccc(OC)cc2)CCCCC4)CC1

>  <classification>
n

$$$$
>  <compound>
COc1ccccc1-n1c(-c2ccc(F)cc2)coc1=O

>  <classification>
n

$$$$
>  <compound>
CCOc1ccc(-c2cc(N3C(=O)Nc4ccccc4N3O)on2)cc1

>  <classification>
y

$$$$
>  <compound>
CC(C#N)Sc1nnc(-c2ccccc2F)n1C1CC1 (stereo not drawn)

>  <classification>
n

$$$$
>  <compound>
COc1cc(C(=O)NCCOc2ccccc2)cc(OC)c1OC

>  <classification>
n

$$$$
>  <compound>
CCOc1cc(/C=N\NC(=O)OC)ccc1OC(=O)c1ccco1

>  <classification>
n

$$$$
>  <compound>
COc1ccc(-n2nc(C(=O)NCC(=O)N(C)Cc3ccccc3)c3ccccc3c2=O)c(OC)c1

>  <classification>
n

$$$$
>  <compound>
COc1ccc(CNC(=O)CN2C(=O)NC3(CCCCCC3)C2=O)cc1OC

>  <classification>
n

$$$$
